Overview of reported growth inhibition across a group of compounds:
Experiment: NCI Yeast Anticancer Drug Screen. Data for the sgs1 mgt1 strain (AID 161);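 further: 0% = growth of cultures given vehicle only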
Details: S. cerevisiae sgs1 mgt1 strain, at 50.0 µM, stronger effect = higher value
Compounds without any hit were thinned out: in the full panel of roughly 79,000, 15% have a hit. Where a SMILES comes first, the peptide text is derived from it. [ ]: non-standard residue; d: D form. The star is where a group is joined. ξ: configuration not given here. Boc = CC(C)(C)OC(=O)*; ξV = CC(C)C(N)C(=O)O; OBn = c1ccc(CO*)cc1
OBSERVED PROPERTY: growth inhibition (%)

INSERT INTO assay_data (compound, value_unit, recorded_value) VALUES
  ('NC(=O)NC(=O)C1C2CC3OC(=O)C1C3C2 (configuration not stated)', '%', -3.2),
  ('CCCCCCCCCCCCc1c2ccccc2cc2ccccc12', '%', -4.7),
  ('Nc1ccc(-c2ccc(Nc3cc(S(=O)(=O)O)c(N)c4c3C(=O)c3ccccc3C4=O)cc2)c(S(=O)(=O)O)c1', '%', -32.5),
  ('N#C[C@H](c1nc2ccccc2[nH]1)c1nc2ccccc2nc1Cl', '%', 21.9),
  ('O=C(Nc1cccc2ccccc12)OCCBr', '%', 3.25),
  ('CCN(CC)C(=S)SCCC(N)=O', '%', -2.8),
  ('Cc1ccc(S(=O)(=O)n2cnc(CC(NC(=O)C3CCC(=O)N3C(=O)OCc3ccccc3)C(=O)N3CCCC3C(=O)NN)c2)cc1 (configuration not stated)', '%', -30.8),
  ('O=C(O)CN1CCSc2ccccc2CN(CC(=O)O)CCSc2ccccc2C1', '%', -2.6),
  ('CCCC(=O)Oc1cccc(C)c1', '%', 0.1),
  ('CN1C(=O)N(C)C2(CCN(CCCCCCF)CC2)C1=O', '%', -34.2),
  ('O=C1CSC(c2ccc(Cl)c([N+](=O)[O-])c2)N1c1nncs1 (configuration not stated)', '%', 24.2),
  ('COc1ccc(C(=O)c2ccccc2)c(N)c1', '%', -2.4),
  ('O=C1C(n2ccc(=O)[nH]c2=O)CCN1CCCl (configuration not stated)', '%', 2.65),
  ('Nc1ccc(CCCCc2ccc(Cl)cc2Cl)cc1', '%', 98.5),
  ('CC1(C)OC(=O)N=C1c1ccc(F)cc1', '%', -1.25),
  ('CC(=O)Nc1cc2ccccc2c(Br)n1', '%', -4.65),
  ('O=c1[nH]cc(SSc2c[nH]c(=O)[nH]c2=O)c(=O)[nH]1', '%', 4.2),
  ('Cn1cc(S(=O)(=O)NC(=O)Nc2ccc(Cl)cc2)c(=O)c2ccc(Cl)cc21', '%', 23.1),
  ('Nc1ncnc2c1nnn2C1C=CC(COS(N)(=O)=O)C1 (configuration not stated)', '%', 3.7),
  ('CCN1CCCC(Nc2cc(C)nc(/N=C(\N)Nc3ccc(Cl)c(Cl)c3)n2)C1 (configuration not stated)', '%', 98.4),
  ('CCCNC(=S)/N=C/c1c(O)cc(C)oc1=O', '%', -24.2),
  ('O=C1C2=C(c3ccccc31)C(c1ccc(Cl)cc1)N1C(=O)CCSC1=N2 (configuration not stated)', '%', 1.9),
  ('CCc1c(O)c2c(=O)n(C)c(=O)n3c4ccccc4n(c1=O)c23', '%', 45.7),
  ('CC1CCCC(C)(C)/C1=N/O (configuration not stated)', '%', 12.5),
  ('COc1ccc2c(c1)CC1(CC2)CCN(CCCN(C)C)CC1', '%', -22.2),
  ('C/C=C/C=N/NS(=O)(=O)c1ccc(C)cc1', '%', -4.1),
  ('O=C1CC(c2ccccc2)Oc2ccccc21 (configuration not stated)', '%', -16.8),
  ('CCCC1SC(=S)N(c2ccc(Cl)cc2)C1=O (configuration not stated)', '%', 26.5),
  ('IC1CCC2OC1CCC2I (configuration not stated)', '%', -3.85),
  ('Nc1nc2c(c(-c3cccc(Cl)c3)n1)COC/C2=C\c1cccc(Cl)c1', '%', 25.2),
  ('CC1N=C(SCc2ccc(Cl)cc2)N2C(C)N=C(SCc3ccc(Cl)cc3)N12 (configuration not stated)', '%', 5.8),
  ('CSC1C(=O)Nc2ccc([N+](=O)[O-])cc21 (configuration not stated)', '%', 0.45),
  ('CCOP(=O)(OCC)c1c(C(=O)OC)cc(=O)[nH]c1-c1ccc(C)cc1', '%', 40),
  ('COC(=O)c1nnn(-c2ccc(Cl)cc2C)c1N', '%', 16.7),
  ('CCN(CC)CC1c2ccccc2C(CNc2ccccc2)N1C (configuration not stated)', '%', -10.1),
  ('CC(C)C(NC(=O)OC(C)(C)C)C(=O)NCC(=O)OCc1ccccc1 (configuration not stated) (Boc-[ξV]-Gly-OBn)', '%', 12.2),
  ('COC(=O)C1=CO[C@@H](C)[C@@H]2CN3CCc4c([nH]c5ccc(OC)cc45)[C@@H]3C[C@H]12', '%', -24.9),
  ('O=C(O)C1COCOC1c1ccccc1 (configuration not stated)', '%', 3),
  ('COc1cc(/C=C2\C=Nc3ccccc32)ccc1O', '%', 38),
  ('COC1=NN2C(OC)(c3ccccc3)c3c(-c4ccccc4)sc(-c4ccccc4)c3C2(c2ccccc2)S1 (configuration not stated)', '%', 5.15),
  ('O=C1OC(c2ccccc2)=N/C1=C\c1cccc2ccccc12', '%', -13.6),
  ('CCN(CC)CC(OC(C)=O)c1ccc2ccc3ccc(O)cc3c2c1 (configuration not stated)', '%', -7.55),
  ('C=C1C(=O)O[C@H]2C[C@@H]1C(=O)CC(C)CCCC(C)=CCC[C@@]2(C)O (some centres not stated)', '%', 15.2),
  ('OC(CNc1ncccn1)(c1ccccc1)c1ccccc1', '%', -0.7),
  ('CC(=O)Nc1ccccc1O', '%', -0.85),
  ('Cc1cc(Br)c2c(c1N)C(=O)c1ccccc1C2=O', '%', 31.4),
  ('O=C(CC1=Nc2nnc(-c3nnc4n3C(=O)C(CC(=O)C3CC3)=N4)n2C1=O)C1CC1', '%', -5.25);

---

Assay: NCI Yeast Anticancer Drug Screen. Data for the rad50 strain (AID 155);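 further: 0% = growth of vehicle-only cultures of the same strain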
Settings: S. cerevisiae rad50 strain growth inhibition; at 50.0 µM; stronger effect = higher value
The panel holds about 79,000 compounds, 15% with a hit somewhere; the sample as a whole holds those more often. Calls of active or inactive are those of the source. Cut-off read from the data, not from the text of the source: active = growth inhibition above about 70%; inactive = the rest.
OBSERVED PROPERTY: growth inhibition

INSERT INTO results (compound, recorded_value) VALUES
  ('Cn1c(=O)c2c(nc(C(c3ccccc3)c3ccccc3)n2C)n(C)c1=O', '-11.3% (inactive)'),
  ('CNC(=O)NC(c1cc(OC)c(O)c(OC)c1)c1cc2c(cc1O)OCO2 (stereo unspecified)', '29.5% (inactive)'),
  ('FC1C2=C(SC1(F)F)C1CCC2C1 (stereo unspecified)', '4.9% (inactive)'),
  ('CCOc1ccccc1NC(=O)/C=C1\NC(=O)CS1', '-8.55% (inactive)'),
  ('Cc1ncc(CSC(=N)N)n1Cc1ccccc1', '-33.6% (inactive)'),
  ('CCOC(=O)C(C(=O)OCC)=C1c2ccccc2Oc2ccccc21', '39.1% (inactive)');

---

Overview of reported growth inhibition across a group of compounds:
Test: NCI Yeast Anticancer Drug Screen. Data for the mlh1 rad18 strain (AID 175)
Settings: S. cerevisiae mlh1 rad18 strain growth inhibition; at 50.0 µM; stronger effect = higher value
Compounds without any hit were thinned out: in the full panel of roughly 79,000, 15% have a hit.
OBSERVED PROPERTY: growth inhibition (%)

INSERT INTO results (compound, value_unit, recorded_value) VALUES
  ('NC(=O)C1=NNc2ccccc2C(=O)N1c1ccccc1', '%', 2.55),
  ('O=C(Nc1nc(C23CC4CC(CC(C4)C2)C3)cs1)c1cc2cc(Cl)ccc2oc1=O', '%', -38),
  ('CS(=O)(=O)OC1C(O)C(O)OC(CO)C1O (configuration not stated)', '%', 7.7),
  ('O=[N+]([O-])c1cccc(C2=NOC3CCCC23)c1 (configuration not stated)', '%', 16.9),
  ('CCOC(OCC)C(N)C(=O)O (configuration not stated)', '%', -15),
  ('CCSc1nnc(-c2ccccc2)nc1Cc1ccc(OC)cc1', '%', -39.5),
  ('COc1ccc(/C(=N\O)C(c2ccc(OC)cc2)C(Cl)(Cl)Cl)cc1 (configuration not stated)', '%', 44.9),
  ('COC(=O)/C=C(\C)Nc1cccc([N+](=O)[O-])c1', '%', -7.3),
  ('COc1ccc(/C(Cl)=C(\C=O)c2cc(OC)c(OC)c(OC)c2)cc1OC', '%', 13.9),
  ('COC(=O)[C@H]1C=C[C@@H](C)n2c(=O)c3ccccc3c(=O)n21', '%', -6.8),
  ('C[n+]1nc2ccccc2c(=Nc2ccccc2[N+](=O)[O-])[n-]1', '%', -1.65),
  ('CCCCC(CC)/C(C)=N/NC(N)=O (configuration not stated)', '%', -11.5),
  ('C=CCOC(=O)c1cccc(C)c1', '%', 7.7),
  ('CN(C)C=NCc1ccc2c(c1)OCO2', '%', -17),
  ('CCNc1nc(Cl)nc(C(Cl)(Cl)Cl)c1Cl (tested in a mixture with another compound)', '%', 95.5),
  ('CS(=O)(=O)CC(O)c1ccccc1 (configuration not stated)', '%', -21.4),
  ('CN(C)CCCn1c(=O)nc2n(-c3ccccc3)c3ccccc3nc-2c1=O', '%', -44.5),
  ('COc1ccc(CNc2cnc3ccc(N)cc3n2)cc1OC', '%', -30.9),
  ('CC(C)CCCC(C)C1CCC2C3CCC4CC(N5CCCCC5)CCC4(C)C3CCC12C (configuration not stated)', '%', 17.1),
  ('CCOC(=O)C(C)(C)c1cn(C)c2ccccc12', '%', 7.4),
  ('NC(=O)c1nnn(Cc2ccccc2)c1C(N)=O', '%', 3.85),
  ('NC(=O)CCCC(C(N)=O)(c1ccccc1)c1ccccc1', '%', -3.9),
  ('Cc1ccc(Cl)c2c1C(=O)c1ccccc1C2=O', '%', 23.9),
  ('CC(=O)/C(=C/n1ccc(=O)[nH]c1=S)C(=O)Nc1ccccc1', '%', -22.1),
  ('COc1ccc2nccc(C(=O)CCC3CCN(C(=O)c4ccc([N+](=O)[O-])cc4)CC3C(CBr)CCBr)c2c1 (configuration not stated)', '%', 34.2),
  ('Cc1[nH]c2ccccc2c1CC1CC(=O)OC1=O (configuration not stated)', '%', -7.15),
  ('ClCCCOCc1ccccc1', '%', 6.3),
  ('Oc1ccc(Cl)cc1CN1CCOCC1', '%', 34.5),
  ('CC(C)(C)C(=O)O[C@H]1C=C[C@@H](O)[C@@H]2[C@H]1[C@@H]1C=C[C@H]2C1', '%', 53.5),
  ('CC(=O)Oc1cc(I)cc(C(=O)O)c1', '%', -10.4),
  ('OCCN(CCO)c1ccc2c(c1)Cc1cc(Br)ccc1-2', '%', 5.15),
  ('CN(C)c1ccccc1C(=O)NNC(=S)Nc1ccccc1', '%', 19.4),
  ('Cc1ccc(S(=O)(=O)OCC2C(COS(=O)(=O)c3ccc(C)cc3)C3CCC2C2C3C3C2C2(C)C(=O)C3(C)C(c3ccccc3)=C2c2ccccc2)cc1 (configuration not stated)', '%', 12.3),
  ('NNC(=O)CNc1cccc(Br)c1', '%', -11.4),
  ('Clc1ccc(CSc2nnc(SCc3ccc(Cl)c(Cl)c3)c3[nH]cnc23)cc1Cl', '%', 3.1),
  ('NC(=Nc1ccc(Br)cc1)/N=C(/N)Nc1cccc(S(=O)(=O)Nc2ncc(Cl)cn2)c1', '%', 4.95),
  ('CCOC(=O)C1Cc2cc(C)c(C)cc2N(C)C1=O (configuration not stated)', '%', -3.6),
  ('CCOC1(OCC)C2(Cl)C(Cl)=C(Cl)C1(Cl)C1CCCC12 (configuration not stated)', '%', 20.6),
  ('CC(=N/Nc1ccc([N+](=O)[O-])cc1[N+](=O)[O-])/C(C)=C/C1C=CCCC1(C)C (configuration not stated)', '%', 6.65),
  ('COc1ccc(N2C(=O)C3C=CC(n4[nH]c(=O)n(Cc5ccccc5)c4=O)CC3C2=O)cc1 (configuration not stated)', '%', -25.6),
  ('COC(=O)C1=C(C(=O)OC)SC(=CC#CC=C2SC(C(=O)OC)=C(C(=O)OC)S2)S1', '%', 1.6),
  ('CC1(C)CC2(CC(C)(C)N1O)NC(=O)OC2=O', '%', 1.3),
  ('N=C(N)Sc1cc(O)c2ccccc2c1O', '%', -2),
  ('COCCC(N)C(=O)O (configuration not stated)', '%', 2.65),
  ('C1=CC(c2ccccc2)C(c2ccccc2)C(c2ccccc2)=C1 (configuration not stated)', '%', -22.6),
  ('Oc1cccc(C=NCCN=Cc2cccc(O)c2O)c1O.[Fe]', '%', 1.15),
  ('COc1ccc2nc(C)cc(N=[N+]=[N-])c2c1', '%', 10.6);
